# System: CCRIS mutagenicity, Ames/micronucleus/aberration tests
# Experimental details: CCRIS mutagenicity studies
# Study conditions: Test System: AMES SALMONELLA TYPHIMURIUM; Strain/Indicator: TA100; Metabolic Activation: HAMSTER, LIVER, S-9, AROCLOR 1254 (10%); Method: STANDARD PLATE
Calls of active or inactive are those of the source. How the calls were made is not given here.
Log the outcome using a class from true (1) (active), false (0) (inactive)

ClC/C=C/CCl
true (1)

[in] // outcome(item) with item = CCC1CCC(CCC(=O)[O-])C1.CCC1CCC(CCC(=O)[O-])C1.[Co+2] (centres undefined)
[out] false (0)

[in] // outcome(item) with item = CN(C)c1ccc(/C=C/c2ccc([N+](=O)[O-])cc2)cc1
[out] true (1)

[in] // outcome(item) with item = O=S(=O)(c1ccc(O)cc1)c1ccc(O)cc1
[out] false (0)
